Assay: Probe fluorescence ratio response to arachidonic acid relative to ADIFAB2
Type: binding
Conditions: arachidonic acid; response relative to ADIFAB2
quantity name: DR/DR AA
Format: numeric value only, no unit, no commentary.

| molecule | DR/DR AA |
| --- | --- |
| 126L, 72A (protein, listed as Rattus norvegicus, PEPTIDE (1)...(131) wild-type rat intestinal fatty acid binding protein) AFDGTWKVDRNENYEKFMEKMGINVVKRKLGAHDNLKLTITQEGNKFTVKESSNFRNIDVVFELGVDFAYSAADGTELTGTWTMEGNKLVGKFKRVDNGKELIAVREISGNELIQTYTYEGVEAKLIFKKE | 0.66 |
| 18I 31L 55L 72A (protein, listed as Rattus norvegicus, PEPTIDE (1)...(131) wild-type rat intestinal fatty acid binding protein) AFDGTWKVDRNENYEKFIEKMGINVVKRKLLAHDNLKLTITQEGNKFTVKESSNLRNIDVVFELGVDFAYSAADGTELTGTWTMEGNKLVGKFKRVDNGKELIAVREISGNELIQTYTYEGVEAKRIFKKE | 1.285 |

Inquiry: Fill blank: measured DR/DR AA of the molecule 72T 73V 74V (protein, listed as Rattus norvegicus, PEPTIDE (1)...(131) wild-type rat intestinal fatty acid binding protein) AFDGTWKVDRNENYEKFMEKMGINVVKRKLGAHDNLKLTITQEGNKFTVKESSNFRNIDVVFELGVDFAYSTVVGTELTGTWTMEGNKLVGKFKRVDNGKELIAVREISGNELIQTYTYEGVEAKRIFKKE is ____.
Reply text: 3.237

Inquiry: Similarly, 34N, 72A (protein, listed as Rattus norvegicus, PEPTIDE (1)...(131) wild-type rat intestinal fatty acid binding protein) AFDGTWKVDRNENYEKFMEKMGINVVKRKLGAHNNLKLTITQEGNKFTVKESSNFRNIDVVFELGVDFAYSAADGTELTGTWTMEGNKLVGKFKRVDNGKELIAVREISGNELIQTYTYEGVEAKRIFKKE ?
Reply text: 1.19

Inquiry: Similarly, 40M, 72A (protein, listed as Rattus norvegicus, PEPTIDE (1)...(131) wild-type rat intestinal fatty acid binding protein) AFDGTWKVDRNENYEKFMEKMGINVVKRKLGAHDNLKLTMTQEGNKFTVKESSNFRNIDVVFELGVDFAYSAADGTELTGTWTMEGNKLVGKFKRVDNGKELIAVREISGNELIQTYTYEGVEAKRIFKKE ?
Reply text: 0.993

Inquiry: Similarly, 14W 18L 117S 72A (protein, listed as Rattus norvegicus, PEPTIDE (1)...(131) wild-type rat intestinal fatty acid binding protein) AFDGTWKVDRNENWEKFLEKMGINVVKRKLGAHDNLKLTITQEGNKFTVKESSNFRNIDVVFELGVDFAYSAADGTELTGTWTMEGNKLVGKFKRVDNGKELIAVREISGNELIQTSTYEGVEAKRIFKKE ?
Reply text: 0.976
